- measurementTarget: UniProt Q8IXJ6
- Sequence (Q8IXJ6 whole entry): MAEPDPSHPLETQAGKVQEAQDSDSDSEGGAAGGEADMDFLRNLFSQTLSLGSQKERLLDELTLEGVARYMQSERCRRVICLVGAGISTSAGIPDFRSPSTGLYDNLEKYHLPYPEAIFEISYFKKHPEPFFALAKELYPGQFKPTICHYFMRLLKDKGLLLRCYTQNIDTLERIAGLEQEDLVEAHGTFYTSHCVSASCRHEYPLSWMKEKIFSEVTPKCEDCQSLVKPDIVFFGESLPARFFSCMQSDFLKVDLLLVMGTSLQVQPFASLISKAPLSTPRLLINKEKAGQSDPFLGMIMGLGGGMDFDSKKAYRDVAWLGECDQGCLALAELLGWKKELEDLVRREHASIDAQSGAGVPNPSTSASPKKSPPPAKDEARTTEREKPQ
metric: IC50 (µM)
Answers are plain numbers, in µM.

Request: Param item = O=C1NC(=S)NC(=O)C1=Cc1ccc(-c2ccccc2)cc1 ; retrieve measured IC50.
Result: 8.7

Data provenance: ChEMBL document CHEMBL1795291
